# test-protocol: plasma level upon oral dosing (AUC-PO)
# stated-conditions: plasma AUC normalised to dose
// reported Rat AUC-PO/dose per item

compound | Rat AUC-PO/dose
Cn1nc(CC(CC(=O)O)c2ccc3c(c2)OCO3)cc1SCCc1ccc2c(n1)NCCC2 (stereo not shown) [Example 3] | 2.2 µg·h/mL/mg/kg
COc1ccc(C(CC(=O)O)Cc2cc(OCCc3ccc4c(n3)NCCC4)n(CC(F)(F)F)n2)cn1 (stereo not shown) [Example 23] | 0.8 µg·h/mL/mg/kg
COc1ccc(C(CC(=O)O)Cc2cc(OCCc3ccc4c(n3)NCCN4C)n(C)n2)cn1 (stereo not shown) [Example 7] | 0.8 µg·h/mL/mg/kg
Cn1nc(CC(CC(=O)O)c2ccc3c(c2)OCO3)cc1OCCc1ccc2c(n1)NCCC2 (stereo not shown) [Example 1] | 0.9 µg·h/mL/mg/kg
Cc1cc(CCOc2cc(CC(CC(=O)O)c3ccc4c(c3)OCO4)nn2C)nc2c1CCCN2 (stereo not shown) [Example 32] | 2.2 µg·h/mL/mg/kg
CNc1cccc(CCOc2cc(CC(CC(=O)O)c3ccc4c(c3)OCO4)nn2C)n1 (stereo not shown) [Example 8] | 0.7 µg·h/mL/mg/kg
O=C(O)CC(Cc1cc(OCCc2ccc3c(n2)NCCC3)n(-c2ccccc2)n1)c1ccc2c(c1)OCO2 (stereo not shown) [Example 21] | 1.7 µg·h/mL/mg/kg
Cn1nc(CC(CC(=O)O)c2cnc(-c3ccc(Cl)cc3)s2)cc1OCCc1ccc2c(n1)NCCC2 (stereo not shown) [Example 2] | 1 µg·h/mL/mg/kg
O=C(O)CC(Cc1cc(OCCc2ccc3c(n2)NCCN3)n(CC(F)(F)F)n1)c1ccc2c(c1)OCO2 (stereo not shown) [Example 26] | 0.9 µg·h/mL/mg/kg
Cl.Cn1nc(CC(CC(=O)O)c2cnc(C3CC3)s2)cc1OCCc1ccc2c(n1)NCCC2 (stereo not shown) [Example 6] | 1.1 µg·h/mL/mg/kg
Cn1nc(CC(CC(=O)O)c2ccc3c(c2)OCO3)cc1S(=O)(=O)CCc1ccc2c(n1)NCCC2 (stereo not shown) [Example 4] | 0.7 µg·h/mL/mg/kg
Cn1nc(CC(CC(=O)O)c2ccc3c(c2)OCO3)cc1OCCc1ccc2c(n1)NCCN2 (stereo not shown) [Example 25] | 0.4 µg·h/mL/mg/kg
CN1CCNc2nc(CCOc3cc(CC(CC(=O)O)c4ccc5c(c4)OCO5)nn3C)ccc21 (stereo not shown) [Example 31] | 1.9 µg·h/mL/mg/kg
